Experimental Readout: melting point

Molecule	melting point
C=CCc1cc(C(C)=O)c(O)cc1OCCCCCC(=O)OC	64 to 65 °C
Oc1ccccc1-c1nccs1	215 °C
COc1cc(C)c([N+](=O)[O-])c(C)c1	50 to 52 °C
CC(C)(C)CC(=O)c1ccc(OCC(=O)O)c(Cl)c1Cl	145 to 146 °C

Entry CCOC(=O)c1cccc2nc(CC)n(Cc3ccc(-c4ccccc4C(=O)C(=O)OC)cc3)c12 has what melting point?
118 to 119 °C

Entry O=C1CCC(N2Cc3cc(CNC(=O)N4CCOCC4)ccc3C2=O)C(=O)N1 (stereo unspecified) has what melting point?
208 to 210 °C

Entry Nc1cc(N2CCOCC2)cc(C(F)(F)F)c1 has what melting point?
96 to 97 °C

Entry CC(C)OC(=O)N1CCC(c2nc3cc(-c4ccc(C=O)cc4)ccc3o2)CC1 has what melting point?
167 to 170 °C

Entry COC(=O)C1CCN2C(=O)C(=O)c3cccc1c32 (stereo unspecified) has what melting point?
135 to 136 °C

Entry CN(CCCCCCCNC(=O)NCCSCc1csc(NC(=N)N)n1)CCN(Cc1ccc(F)cc1)c1ccccn1 has what melting point?
125 °C

Entry N#Cc1ccc2sc3c(c2c1)CC(CO)CC3 (stereo unspecified) has what melting point?
165 to 166 °C
